system: SN12C renal; assay: NCI-60 one-dose screen, 48 h (100 = growth as untreated, 0 = no growth, -100 = all killed); conditions: 10 µM unless noted
This is part of a sample that, as a whole, favours compounds with a hit. Of some 83,000 tested, about 20% had one in any assay.
Hi there, I'd appreciate the recorded growth for every entry that follows.
Numbers only, in %.

molecule	growth (%)
COc1ccc2nc(NC(=O)COc3cc(/C=C\c4cc(OC)c(OC)c(OC)c4)ccc3OC)sc2c1	45.3
CCCCN1CCCC[C@@H]1C(=O)N[C@H](C(=O)N(C)[C@H](C[C@@H](OC(C)=O)c1nc(C(=O)NC2CCC(C(=O)OC)CC2)cs1)C(C)C)C(C)C (stereo partly drawn)	46.3
CC1(C)N=C(N)N=C(N)N1c1ccc(OCCCNC(=O)Nc2ccc(S(=O)(=O)F)cc2)c(Cl)c1	23.8
Cc1ccc(C(=O)NCCCOc2ccc(N)cc2Cl)cc1S(=O)(=O)F	105

For every listed record, write down its growth.
1. O=[N+]([O-])c1cnc[nH]1
2. C[C@@H]1CCC2[C@@H](C)[C@H](OC(=O)CCC(=O)NCCNC(=O)Cc3cc(=O)oc4cc(N(C)C)ccc34)O[C@@H]3O[C@]4(C)CC[C@@H]1C23OO4 (stereo partly drawn)
3. CCCC[C@H](NC(=O)[C@H]1CCCCN1C)C(=O)N(C)[C@H](C[C@@H](OC(C)=O)c1nc(C(=O)N[C@@H](Cc2ccccc2)C[C@H](C)C(=O)OCC)cs1)C(C)C
4. COc1ccc(C(=O)c2cc(OC)c(OC)c(OC)c2)cc1OC(C)=O

[103, 32.2, 23.9, 29.5]

====

tested on: HT29 colon; assay: NCI-60 one-dose screen, 48 h; details: 10 µM unless noted
Compounds without any hit were thinned out: in the full panel of roughly 83,000, 20% have a hit. Activity calls are given as the source filed them. How the source made its calls: active means growth percent below 10; inactive means the rest.
Parameter call: string, one of T (active), F (inactive)

Reference set (5 entries):
molecule	assigned class
CC(C)(N)Cc1ccccc1	F
C1CCC([PH+](C2CCCCC2)C2CCCCC2[PH+](C2CCCCC2)C2CCCCC2)CC1.O=C(C1[CH-]CCCC1)C1CCCC[N-]1.[Au] (stereo not given)	T
C[C@@H]1O[C@@H](O[C@H]2C[C@@H](O)[C@]3(CO)C4C(CC[C@]3(O)C2)[C@@]2(O)CC[C@H](C3=CC(=O)OC3)[C@@]2(C)C[C@H]4O)[C@H](O)[C@H](O)[C@H]1O (stereo not given in full)	T
CN1C(=O)N[C@H]2[C@@H]3NC(=O)c4ccc(Br)n4[C@@H]3C[C@]21O	T
CCCCOc1ccc(C(N)Cc2ccccc2)cc1 (stereo not given)	F

Write down the call the test reported for this molecule. Item: Nc1nnnc2nc[nH]c12
F

// outcome(item) with item = Clc1ccc(N2COOC3(OOC2)C2CC4CC(C2)CC3C4)cc1
F

Look up the recorded call for Cc1ccc(C(=O)NCCCOc2ccc(N3C(N)=NC(N)=NC3(C)C)cc2Cl)cc1S(=O)(=O)F in this test.
F

In this assay, the call recorded for COc1cc(/C=C\c2cc(OC)c(OC)c(OC)c2)cc(NS(=O)(=O)c2cccc(Cl)c2)c1OC was what?
F

Test call, this molecule: COc1ccc(Nc2ccnc3cc(Cl)ccc23)cc1CN(CCCl)CCCl
T

src = PubChem BioAssay (NCI)
